Assay: inhibitors of TNFa-induced NFkB p65 translocation, primary screen, imaging, HUVEC, MLSMR starter and 10KST1 sets (AID 438);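 note: compound added about 3h40 before a 20 min TNFalpha stimulation; signal is the nuclear over cytoplasmic p65 intensity ratio per well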
Conditions: HUVEC TNFa-induced p65 nuclear translocation; at 2 µM, stronger effect = higher value, 0% TNFa-plus-vehicle, 100% no-TNFa wells
Exercise: for every item that follows, state its recorded inhibition.
Give bare numbers, in %.

>>> df
                   molecule  assay_endpoint  measured_value
0  C#CCNc1c(C)c(C)nc2ncnn12      inhibition            -9.4

Hi, could you look up inhibition for each item in my list?
1. CCOc1ccc2[nH]c(=O)c(C(c3nnnn3CC3CCCO3)N3CCc4ccccc4C3)cc2c1 (stereo unspecified)
2. CN(C(=O)c1ccccn1)c1nnc(-c2cccnc2)s1
3. CC(=O)NC(CCS(C)(=O)=O)C(=O)Nc1cc(C)on1 (stereo unspecified)

## Result
[12.9, -8.7, -2.9]

----------
Test: reduction of polyQ htt aggregates in cells – imaging, exon1htt(103Q)mCFP cells, high-content imaging, primary screen (AID 483);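 note: compound exposure lasted 3 days before fixation; percent of the per-plate median nuclei count of sample wells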
Conditions: exon1htt(103Q)mCFP cell line, aggregate imaging, at 2 µM; measured here: cell count, toxicity
ASSAY ENDPOINT: nuclei count (%)
Answers are plain numbers, in %.

>>> print(df.to_string())
                                   compound  unit_label  measured_value
0  COc1cc2c(=O)nc3n(c2cc1OC)C(c1ccccc1)N=C(N)N3 (stereo unspecified)           %            86.3
1           CCCCNC(=O)Cn1c(=O)n(C)c2ccccc21           %             111
2  COC(=O)CC1C(=O)NCCN1C(=O)NC1CCCCC1 (stereo unspecified)           %             110
3                      c1ccc2c(c1)sc1nnnn12           %             112
4  C=CCN1C(=O)C2(C(C#N)=C(N)Oc3n[nH]c(CCC)c32)c2ccccc21 (stereo unspecified)           %            95.3

--- query ---
## Task // returns reported nuclei count for input NCc1cccc(-n2cccn2)c1
## Result 96.4

----------
Experiment: endothelial E-selectin expression blockers – imaging, HUVEC, immunofluorescence, MLSMR starter and 10KST1 sets, primary screen (AID 487);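 note: 100% = median nuclei count of all wells on the same plate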
Conditions: HUVEC TNFalpha-induced E-selectin immunofluorescence imaging, at 2 µM; measured here: cell number, toxicity
ASSAY ENDPOINT: nuclei count
Please answer in the form of a number followed by its unit of measurement.

Examples with answers:
>>> print(df.to_string())
                                   compound  measured_value
0       O=c1c2cc(Cl)ccc2[nH]c(=S)n1Cc1ccco1            102%
1             COc1ccc(OCCCC(=O)Nc2nncs2)cc1            102%
2  COc1cc2c(cc1OC)CN(C(=O)CSc1nc3[nH]ncc3c(=O)n1-c1ccccc1)CC2             87%
3  CCOc1nc(-c2ccccc2)ccc1-c1noc(-c2ccc(OC)c(OC)c2)n1            107%

Hi, could you look up nuclei count for each item in my list?
1. Cc1ccccc1-c1nc(CN2CCC(C(=O)NC3CCN(Cc4ccccc4)CC3)CC2)c(C)o1
2. CCOC(=O)c1cnc(-n2cc(C)cn2)nc1Nc1ccccc1OC
3. COc1ccc(NC(=O)c2cc(C(C)C)on2)c(OC)c1
4. Cc1nc2ccccc2c(=O)n1CC(=O)N1CCOCC1
5. Cc1ccc2nc(-c3ccc4c(c3)OCCO4)cc(C(=O)O)c2c1
6. O=C(O)CCc1ccc(-c2ccc(Br)cc2)n1CC(=O)O

## Result
1: 108%; 2: 114%; 3: 107%; 4: 89.9%; 5: 89.9%; 6: 112%

Hi, could you look up nuclei count for each item in my list?
1. CCOc1cc(NC(=O)c2ccco2)c(OCC)cc1NC(=O)CCC(=O)NCc1cccnc1
2. COc1ccc(-c2nnc(-c3ccc(N)cc3)o2)cc1
3. COc1cccc(-c2cc(C(=O)NCc3ccc(Cl)cc3)no2)c1

## Result
1. 90.3%
2. 124%
3. 95.6%

Numbers sourced from PubChem BioAssay.
